Test system: MS2 coat protein
method: apparent KD of MS2 coat protein; designed switch direction (-1 OFF switch, 1 ON switch): 1; higher = weaker reporter binding
study-conditions: input ligand: none
Note to self: values exactly at 40 nM are Condition met. So apparent KD of MS2 coat protein at or above 40 nM is Condition met, below is Condition not met.

Please review the entries below; each comes with its answer.
>  <polymer-sequence>
GCUGGAAACCACAUGAGGAUCACCCAUGUUCCGGAAACGGCGCAGGAUAUCUGUCCGAAAAGGUCAGAGAAGGGUGGAACCAGC [Fiskers NG3ss - 81] (Eterna round: R96, puzzle: Same State NG 3)

>  <study-system>
MS2 coat protein

>  <discrete-label>
Condition met

$$$$
>  <polymer-sequence>
AGGCUCAGACGAGGAUAUAUGUCUCGAGCUUCGGCUCGAGACAUGAGGAUCACCCAUGUAAUAACAUAGAAGGCGUCUGAGCCA [SSNG2/1-A1] (Eterna round: R96, puzzle: Same State NG 2)

>  <study-system>
MS2 coat protein

>  <discrete-label>
Condition not met

$$$$
>  <polymer-sequence>
AGCCGAGACUGAGGAUAUUUGUAUCUACAUGAGGAUCACCCAUGUAGCGUCACGUGGUAGUGAUCGAAGAAGGCAGCUCGGCGC [MOD3 of Omei's SS(NG)2 Cv2] (Eterna round: R96, puzzle: Same State NG 2)

>  <study-system>
MS2 coat protein

>  <discrete-label>
Condition not met

$$$$

Enquiry: I'd appreciate it if you could say whether AAAGGAUGAUGUUACAUGAGGAUCACCCAUGUUGUGAUAACUAAGGAUAUGUGUUAAACCAGUUAAUAGAAGGUAGGAUCAUAA [AK SSNG3-V2-5] (Eterna round: R96, puzzle: Same State NG 3) has apparent KD of MS2 coat protein at least equal to 40 nM.
Return: Condition met

Enquiry: State whether the measured apparent KD of MS2 coat protein reaches 40 nM, counting equality as reaching it, for CCGAUUUAUGGAGGAUAUGGAGCCUUAUUGGCUCCAGAAGGCUAAUAACAUGAGGAUCACCCAUGUCGGCGGUCUAAUGACCGA [Eli NG1ss - 52] (Eterna round: R96, puzzle: Same State NG 1)
Return: Condition met
